Target: TAOK2 (Rattus norvegicus, UniProt Q9JLS3)
Construct: made in house
Sequence (Q9JLS3 1-320 limits assumed): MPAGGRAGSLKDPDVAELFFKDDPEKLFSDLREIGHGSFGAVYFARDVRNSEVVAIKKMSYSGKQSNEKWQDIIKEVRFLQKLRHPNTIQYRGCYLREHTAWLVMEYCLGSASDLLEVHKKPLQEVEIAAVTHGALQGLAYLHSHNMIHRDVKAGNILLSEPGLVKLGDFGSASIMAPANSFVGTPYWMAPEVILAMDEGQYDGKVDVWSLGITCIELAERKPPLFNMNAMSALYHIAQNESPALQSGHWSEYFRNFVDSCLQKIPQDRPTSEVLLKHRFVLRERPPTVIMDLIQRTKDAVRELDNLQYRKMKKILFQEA
Assay: Differential scanning fluorimetry (DSF) binding assay against TAOK2
Conditions: DSF melt temperature shift of TAOK2, 5 μM TAOK2, compound 1 μM
Procedure: Differential scanning fluorimetry binding assays of selected compounds against TAOK2 were conducted to measure strength of compound binding. A solution of 5 μM TAOK2, 50 mM MgCl2, 50 mM HEPES pH 7.5, and 2.5x SyproOrange(Life Technologies) was made. Compound was added to a final concentration of 1 μM. […] Plates were read in a Biorad CFX96 Real-Time PCR system. The temperature was increased from 4° C. to 80° C., with fluorescence measurements being taken every 0.5° C. in the 6-FAM Fluorescein channel. […]
Property: ΔTm (°C)

Here is how some molecules turned out for ΔTm.
Molecule | ΔTm [°C]
Cc1ccc(NCCCC(=O)N/N=C/c2cc(Br)cc(Br)c2O)cc1 | 1.6
Cc1cccc(NC(=S)N/N=C/c2c[nH]c3ccccc23)c1 | 0.5

a. O=C(NCC1COc2ccccc2O1)c1ccc2c(=O)n(Cc3ccco3)c(=S)[nH]c2c1 (stereo not shown)
b. CCc1ccccc1Nc1ncc(-c2sc(NC(C)=O)nc2C)s1
From the items above, decide which of a and b has the lower ΔTm reading. Write down the label of the entry you select. b
